IC50 values, listed per item
Target: UniProt:P18405
Test: 5α-reductase in vitro inhibitory activity, human type 1

{"columns": ["compound", "IC50"],
 "data": [
  ["CC12CCC(=O)C=C1NCC1C2CCC2(C)C(C(=O)NC(c3ccccc3)c3ccc(Cl)cc3)CCC12 (stereo not shown) [Compound 11]", "10 to 100 nM"],
  ["CC(C)(Cc1ccc(F)cc1)NC(=O)[C@H]1CC[C@H]2[C@@H]3CNC4=CC(=O)CC[C@]4(C)[C@H]3CC[C@]12C [Compound 32]", "10 to 100 nM"],
  ["CCc1c(Cl)cc(Cl)c(CC)c1NC(=O)[C@H]1CC[C@H]2[C@@H]3CNC4=CC(=O)CC[C@]4(C)[C@H]3CC[C@]12C [Compound 54]", "10 to 100 nM"],
  ["CC(Cc1ccccc1)NC(=O)C1CCC2C3CNC4=CC(=O)CCC4(C)C3CCC12C (stereo not shown) [Compound 13]", "10 to 100 nM"],
  ["CC(C)CC(=O)OC[C@H]1CC[C@H]2[C@@H]3CNC4=CC(=O)CC[C@]4(C)[C@H]3CC[C@]12C [Compound 27]", "< 10 nM"],
  ["C[C@]12CC[C@H]3[C@@H](CNC4=CC(=O)CC[C@@]43C)[C@@H]1CC[C@@H]2C(=O)Nc1cc(C(F)(F)F)cc(C(F)(F)F)c1 [Compound 57]", "10 to 100 nM"],
  ["CC(C)(C)c1ccc(C2(NC(=O)[C@H]3CC[C@H]4[C@@H]5CNC6=C(Cl)C(=O)CC[C@]6(C)[C@H]5CC[C@]34C)CCCCC2)cc1 [Compound 139]", "< 10 nM"],
  ["C[C@]12CC[C@H]3[C@@H](CNC4=CC(=O)CC[C@@]43C)[C@@H]1CC[C@@H]2C(=O)Nc1cccc2c1Cc1ccccc1-2 [Compound 15]", "> 100 nM"],
  ["C[C@]12CC[C@H]3[C@@H](CNC4=CC(=O)CC[C@@]43C)[C@@H]1CC[C@@H]2C(=O)NCCc1ccccn1 [Compound 20]", "> 100 nM"],
  ["C[C@]12CC[C@H]3[C@@H](CNC4=CC(=O)CC[C@@]43C)[C@@H]1CC[C@@H]2C(=O)NCC(c1ccccc1)c1ccccc1 [Compound 22]", "10 to 100 nM"],
  ["C[C@]12CC[C@H]3[C@@H](CNC4=CC(=O)CC[C@@]43C)[C@@H]1CC[C@@H]2C(=O)Nc1c(Br)cc(Cl)cc1Br [Compound 69]", "10 to 100 nM"],
  ["C[C@]12CC[C@H]3[C@@H](CNC4=CC(=O)CC[C@@]43C)[C@@H]1CC[C@@H]2C(=O)NC1(c2ccc(Cl)cc2Cl)CC1 [Compound 101]", "< 10 nM"],
  ["C[C@]12CC[C@H]3[C@@H](CNC4=CC(=O)CC[C@@]43C)[C@@H]1CC[C@@H]2C(=O)NC1(c2ccc(Cl)cc2)CCCC1 [Compound 64]", "< 10 nM"],
  ["C[C@]12CC[C@H]3[C@@H](CNC4=CC(=O)CC[C@@]43C)[C@@H]1CC[C@@H]2C(=O)CC(c1ccccc1)c1ccccc1 [Compound 43]", "< 10 nM"],
  ["Cc1cc(C(C)(C)C)cc(C)c1NC(=O)[C@H]1CC[C@H]2[C@@H]3CNC4=CC(=O)CC[C@]4(C)[C@H]3CC[C@]12C [Compound 48]", "< 10 nM"],
  ["CC(C)(C)c1ccc(C(F)(F)F)cc1NC(=O)[C@H]1CC[C@H]2[C@@H]3CNC4=CC(=O)CC[C@]4(C)[C@H]3CC[C@]12C [Compound 87]", "< 10 nM"],
  ["CC12CCC(=O)C=C1NCC1C2CCC2(C)C(C(=O)Nc3ccc4c(c3)OCO4)CCC12 (stereo not shown) [Compound 7]", "> 100 nM"],
  ["CC(C)(C)c1ccc(-c2ccc(Cl)cc2)cc1NC(=O)[C@H]1CC[C@H]2[C@@H]3CNC4=CC(=O)CC[C@]4(C)[C@H]3CC[C@]12C [Compound 120]", "< 10 nM"],
  ["Cc1ccc(Oc2ccc(C(F)(F)F)cc2NC(=O)[C@H]2CC[C@H]3[C@@H]4CNC5=CC(=O)CC[C@]5(C)[C@H]4CC[C@]23C)cc1 [Compound 79]", "10 to 100 nM"],
  ["CC(C)c1cccc(C(C)C)c1NC(=O)[C@H]1CC[C@H]2[C@@H]3CNC4=CC(=O)C=C[C@]4(C)[C@H]3CC[C@]12C [Compound 93]", "10 to 100 nM"],
  ["C[C@]12CC[C@H]3[C@@H](CNC4=CC(=O)CC[C@@]43C)[C@@H]1CC[C@@H]2C(=O)NC(c1ccc(Cl)cc1)c1ccc(Cl)cc1 [Compound 47]", "10 to 100 nM"],
  ["C[C@]12CC[C@H]3[C@@H](CNC4=CC(=O)CC[C@@]43C)[C@@H]1CC[C@@H]2C(=O)Nc1ccccc1Br [Compound 52]", "10 to 100 nM"],
  ["CC(C)(C)c1ccc(C2(NC(=O)[C@H]3CC[C@H]4[C@@H]5CNC6=CC(=O)CC[C@]6(C)[C@H]5CC[C@]34C)C3CCCC2CCC3)cc1 (stereo partly shown) [Compound 144]", "< 10 nM"],
  ["C[C@]12CC[C@H]3[C@@H](CNC4=CC(=O)CC[C@@]43C)[C@@H]1CC[C@@H]2C(=O)NCc1ccco1 [Compound 19]", "> 100 nM"],
  ["CC(C)(C)c1ccc(C2(NC(=O)[C@H]3CC[C@H]4[C@@H]5CNC6=CC(=O)CC[C@]6(C)[C@H]5CC[C@]34C)CCCCCC2)cc1 [Compound 136]", "< 10 nM"]
]}

====

Target: human type 1 5α-reductase (Homo sapiens)
Assay: 5α-reductase in vitro inhibitory activity, human type 1
IC50 values, listed per item

{"columns": ["compound", "IC50"],
 "data": [
  ["CC(NC(=O)[C@H]1CC[C@H]2[C@@H]3CNC4=CC(=O)CC[C@]4(C)[C@H]3CC[C@]12C)(c1ccc(Cl)cc1)c1ccc(Cl)cc1 [Compound 66]", "> 100 nM"],
  ["C[C@]12CC[C@H]3[C@@H](CNC4=CC(=O)CC[C@@]43C)[C@@H]1CC[C@@H]2C(=O)Nc1cc(C(F)(F)F)ccc1Oc1ccc(Cl)cc1 [Compound 81]", "10 to 100 nM"],
  ["CC(C)(C)c1ccc(NC(=O)[C@H]2CC[C@H]3[C@@H]4CNC5=CC(=O)CC[C@]5(C)[C@H]4CC[C@]23C)c(C(F)(F)F)c1 [Compound 100]", "< 10 nM"],
  ["CCS(=O)(=O)c1ccc(C(F)(F)F)cc1NC(=O)[C@H]1CC[C@H]2[C@@H]3CNC4=CC(=O)CC[C@]4(C)[C@H]3CC[C@]12C [Compound 85]", "< 10 nM"],
  ["CCC(CC)(NC(=O)[C@H]1CC[C@H]2[C@@H]3CNC4=CC(=O)CC[C@]4(C)[C@H]3CC[C@]12C)c1ccccc1 [Compound 103]", "10 to 100 nM"],
  ["CC1CCC(C(C)C)C(OC(=O)OC[C@H]2CC[C@H]3[C@@H]4CNC5=CC(=O)CC[C@]5(C)[C@H]4CC[C@]23C)C1 (stereo partly drawn) [Compound 89]", "10 to 100 nM"]
]}

====

Biological target: human type 1 5α-reductase (Homo sapiens, UniProt P18405)
Sequence (P18405 whole entry): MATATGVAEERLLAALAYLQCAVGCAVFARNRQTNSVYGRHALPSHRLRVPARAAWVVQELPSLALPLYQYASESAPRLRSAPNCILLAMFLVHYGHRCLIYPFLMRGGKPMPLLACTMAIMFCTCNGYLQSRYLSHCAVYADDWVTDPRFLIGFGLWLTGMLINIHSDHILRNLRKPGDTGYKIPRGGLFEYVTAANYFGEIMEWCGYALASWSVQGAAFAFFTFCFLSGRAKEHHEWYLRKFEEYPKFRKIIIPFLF
Test: 5α-reductase in vitro inhibitory activity, human type 1

{"columns": ["compound", "IC50"],
 "data": [
  ["CCC(C)(C)c1ccc(Oc2ccccc2)c(NC(=O)[C@H]2CC[C@H]3[C@@H]4CNC5=CC(=O)CC[C@]5(C)[C@H]4CC[C@]23C)c1 [Compound 83]", "10 to 100 nM"],
  ["CC(NC(=O)[C@H]1CC[C@H]2[C@@H]3CNC4=CC(=O)CC[C@]4(C)[C@H]3CC[C@]12C)C(c1ccccc1)c1ccccc1 (stereo partly shown) [Compound 45]", "> 100 nM"],
  ["CC(C)(C)c1ccc(C2(NC(=O)[C@H]3CC[C@H]4[C@@H]5CNC6=CC(=O)CC[C@]6(C)[C@H]5CC[C@]34C)CCCCC2)cc1 [Compound 122]", "< 10 nM"],
  ["CC(C)(C)c1ccc(NC(=O)[C@H]2CC[C@H]3[C@@H]4CNC5=CC(=O)CC[C@]5(C)[C@H]4CC[C@]23C)cc1 [Compound 108]", "10 to 100 nM"],
  ["CC(C)(C)c1ccc(C(C)(C)C)c(NC(=O)C2CCC3C4CNC5=CC(=O)CCC5(C)C4CCC23C)c1 (stereo not shown) [Compound 10]", "< 10 nM"],
  ["C[C@]12CC[C@H]3[C@@H](CNC4=CC(=O)CC[C@@]43C)[C@@H]1CC[C@@H]2C(=O)Nc1ccc2c(c1)CCC2 [Compound 4]", "> 100 nM"],
  ["C[C@]12CC[C@H]3[C@@H](CNC4=CC(=O)CC[C@@]43C)[C@@H]1CC[C@@H]2C(=O)NCc1ccc(C(F)(F)F)cc1 [Compound 30]", "10 to 100 nM"],
  ["CC(C)(C)c1ccc(C(F)(F)F)cc1NC(=O)[C@H]1CC[C@H]2[C@@H]3CNC4=C(Cl)C(=O)CC[C@]4(C)[C@H]3CC[C@]12C [Compound 127]", "< 10 nM"],
  ["CC(C)(C)c1ccc(NC(=O)[C@H]2CC[C@H]3[C@@H]4CNC5=CC(=O)CC[C@]5(C)[C@H]4CC[C@]23C)c(Cl)c1 [Compound 72]", "10 to 100 nM"],
  ["C[C@]12CC[C@H]3[C@@H](CNC4=CC(=O)CC[C@@]43C)[C@@H]1CC[C@@H]2C(=O)Nc1cc(C(F)(F)F)ccc1Cl [Compound 44]", "10 to 100 nM"],
  ["CC(C)c1cc(Br)c(NC(=O)[C@H]2CC[C@H]3[C@@H]4CNC5=CC(=O)CC[C@]5(C)[C@H]4CC[C@]23C)c(Br)c1 [Compound 49]", "< 10 nM"],
  ["CC(C)(C)c1ccc(Cl)cc1NC(=O)[C@H]1CC[C@H]2[C@@H]3CNC4=CC(=O)CC[C@]4(C)[C@H]3CC[C@]12C [Compound 75]", "< 10 nM"],
  ["CC(C)(C)c1ccc(C(NC(=O)[C@H]2CC[C@H]3[C@@H]4CNC5=CC(=O)CC[C@]5(C)[C@H]4CC[C@]23C)c2ccccc2)cc1 (stereo partly shown) [Compound 67]", "> 100 nM"]
]}
